system: NB69; assay: cells; format: functional, cell-based, Homo sapiens; conditions: Homo sapiens, NB69;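 also: growth inhibition of NB69 cells, determined by a cell viability assay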
Description: SANGER: Inhibition of human NB69 cell growth in a cell viability assay.
measuredAttribute: pIC50
Scale note: pIC50 = -log10(concentration in M).

Ask: Recall and state the measured pIC50 for CS(=O)(=O)N1CCN(Cc2cc3nc(-c4cccc5[nH]ncc45)nc(N4CCOCC4)c3s2)CC1 .
Result: 6.61

Ask: Give pIC50 for the following molecule: CN(NC(=O)CC(=O)NN(C)C(=S)c1ccccc1)C(=S)c1ccccc1
Result: 8.91

Ask: Please indicate pIC50 recorded for Cc1cc(N2CCOCC2)cc2[nH]c(-c3c(NC[C@@H](O)c4cccc(Cl)c4)cc[nH]c3=O)nc12
Result: 6.53

Ask: Supply reported pIC50 belonging to this molecule: CNCc1ccc(-c2[nH]c3cc(F)cc4c3c2CCNC4=O)cc1
Result: 6.02

Ask: Dear colleague, please send me the reported pIC50 for COc1cc(N2CCC(N3CCN(C)CC3)CC2)ccc1Nc1ncc(Cl)c(Nc2ccccc2S(=O)(=O)C(C)C)n1 when you can.
Result: 6.50
